Sourced from patent US9266883B2

# target_system: FGFR4 (GST-FGFR4(388-802)) (Homo sapiens (Human), UniProt P22455)
# Sequence (P22455 388-802): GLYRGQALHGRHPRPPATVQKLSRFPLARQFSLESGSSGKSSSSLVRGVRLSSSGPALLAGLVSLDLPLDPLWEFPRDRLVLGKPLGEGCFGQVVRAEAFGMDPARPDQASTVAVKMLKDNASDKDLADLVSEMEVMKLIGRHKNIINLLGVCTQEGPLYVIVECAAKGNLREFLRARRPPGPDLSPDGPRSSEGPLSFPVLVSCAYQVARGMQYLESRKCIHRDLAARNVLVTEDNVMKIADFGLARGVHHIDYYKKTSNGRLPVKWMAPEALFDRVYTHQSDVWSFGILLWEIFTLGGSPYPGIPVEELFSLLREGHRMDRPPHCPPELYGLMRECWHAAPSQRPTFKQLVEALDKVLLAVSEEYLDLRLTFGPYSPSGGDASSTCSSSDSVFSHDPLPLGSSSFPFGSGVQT
# run_description: In-vitro biochemical kinase assay for FGFR4 (Caliper microfluidic mobility shift)
# details: biochemical FGFR4 assay; read-out: Biochemical IC50
experimental_endpoint: IC50 (nM)

molecule: CN1CCN(Cc2cc3c(nc2C=O)N(C(=O)Nc2cc(NCC(C)(C)O)c(C#N)cn2)CCC3)C(=O)C1
experimental_endpoint: IC50
reported_result: 0.9
--
molecule: COC[C@@H](C)Nc1cc(NC(=O)N2CCCc3cc(CN4CCCC4=O)c(C=O)nc32)ncc1C#N
experimental_endpoint: IC50
reported_result: 0.6
--
molecule: CCNc1cc(NC(=O)N2CCCc3cc(CN4CCN(C)CC4=O)c(C=O)nc32)ncc1C#N
experimental_endpoint: IC50
reported_result: 3.4
--
molecule: CN1CCN(Cc2cc3c(nc2C=O)N(C(=O)Nc2cc(OCCF)c(C#N)cn2)CCC3)C(=O)C1
experimental_endpoint: IC50
reported_result: 2.4
--
molecule: COC(C)(C)CNc1cc(NC(=O)N2CCCc3cc(CN(C)C(C)=O)c(C=O)nc32)ncc1C#N
experimental_endpoint: IC50
reported_result: 0.7
--
molecule: COCC(C)Nc1cc(NC(=O)N2CCCc3cc(CN(C)C(C)=O)c(C=O)nc32)ncc1C#N (stereo not drawn)
experimental_endpoint: IC50
reported_result: 0.8
--
molecule: CC(=O)N(C)Cc1cc2c(nc1C=O)N(C(=O)Nc1cc(NCCO)c(C#N)cn1)CCC2
experimental_endpoint: IC50
reported_result: 0.5
--
molecule: CCNc1cc(NC(=O)N2CCCc3cc(CN(C)C(=O)CN(C)C)c(C=O)nc32)ncc1C#N
experimental_endpoint: IC50
reported_result: 0.2
--
molecule: CC(C)Oc1cc(NC(=O)N2CCCc3cc(CN4CCNC(=O)C4)c(C=O)nc32)ncc1C#N
experimental_endpoint: IC50
reported_result: 1.6
--
molecule: CC(=O)N(C)Cc1cc2c(nc1C=O)N(C(=O)Nc1cc(O[C@H]3CCOC3)c(C#N)cn1)CCC2
experimental_endpoint: IC50
reported_result: 0.4
--
molecule: COCCNc1cc(NC(=O)N2CCCc3cc(CN(C)C(C)=O)c(C=O)nc32)ncc1C(F)(F)F
experimental_endpoint: IC50
reported_result: 2.3
--
molecule: CCN(Cc1cc2c(nc1C=O)N(C(=O)Nc1cc(NC)c(C#N)cn1)CCC2)C(=O)CN(C)C
experimental_endpoint: IC50
reported_result: 12
--
molecule: N#Cc1cnc(NC(=O)N2CCCc3cc(C(F)F)c(C=O)nc32)cc1OCC(F)(F)F
experimental_endpoint: IC50
reported_result: 110
--
molecule: CC(C)Oc1cc(NC(=O)N2c3nc(C=O)c(Br)cc3CC[C@@H]2C)ncc1C#N
experimental_endpoint: IC50
reported_result: 3.3
--
molecule: CCc1cc(NC(=O)N2CCCc3cc(CN4CCN(C)CC4=O)c(C=O)nc32)ncc1C#N
experimental_endpoint: IC50
reported_result: 8.9
--
molecule: CCN(Cc1cc2c(nc1C=O)N(C(=O)Nc1cc(NC(C)C)c(C#N)cn1)CCC2)C(=O)CN(C)C
experimental_endpoint: IC50
reported_result: 0.8
--
molecule: CN1CCN(Cc2cc3c(nc2C=O)N(C(=O)Nc2cc(NC(C)(C)C)c(C#N)cn2)CCC3)C(=O)C1
experimental_endpoint: IC50
reported_result: 1.8
--
molecule: COC[C@@H](C)Nc1cc(NC(=O)N2CCCc3cc(CN(C)C(C)=O)c(C=O)nc32)ncc1C#N
experimental_endpoint: IC50
reported_result: 1.8
--
molecule: COCCNc1cc(NC(=O)N2CCCc3cc(CN4CCC(N(C)C)C4)c(C=O)nc32)ncc1C#N (stereo not drawn)
experimental_endpoint: IC50
reported_result: 0.5
--
molecule: COCCOc1nc(NC(=O)N2CCCc3cc(C(F)F)c(C=O)nc32)ncc1C#N
experimental_endpoint: IC50
reported_result: 28
--
molecule: CC(C)Oc1cc(NC(=O)N2c3nc(C=O)c(Br)cc3CC[C@H]2C)ncc1C#N
experimental_endpoint: IC50
reported_result: 21
--
molecule: COC[C@@H](C)Nc1cc(NC(=O)N2CCCc3cc(CN4CCOCC4=O)c(C=O)nc32)ncc1C#N
experimental_endpoint: IC50
reported_result: 2.4
--
molecule: CC(C)Oc1cc(NC(=O)N2CCCc3cc(CN4CCCC4)c(C=O)nc32)ncc1C#N
experimental_endpoint: IC50
reported_result: 26.4
--
molecule: CC(C)Nc1cc(NC(=O)N2CCCc3cc(CN(C)C(=O)CN(C)C)c(C=O)nc32)ncc1C#N
experimental_endpoint: IC50
reported_result: 0.6
--
molecule: N#Cc1cnc(NC(=O)N2CCCc3cc(CO)c(C=O)nc32)cc1OCC1CNCCO1 (stereo not drawn)
experimental_endpoint: IC50
reported_result: 350
--
molecule: N#Cc1cnc(NC(=O)N2CCCc3cc(C(F)F)c(C=O)nc32)cc1Cl
experimental_endpoint: IC50
reported_result: 57
--
molecule: CC(=O)N(C)Cc1cc2c(nc1C=O)N(C(=O)Nc1cc(NCC(C)(C)O)c(C#N)cn1)CCC2
experimental_endpoint: IC50
reported_result: 1.6
